# Test system: RXF 393 renal
# assayDetails: NCI tumour cell line growth inhibition, 48 h
Measured TGI by item
Output spec: scalar in µM, unitless text.

Solved entries:
{"compound": "COC(=O)[C@@]1(C)CC[C@]2(C)CC[C@]3(C)C4=CC=C5C(=CC(=O)C(O)=C5C)[C@]4(C)[C@@H](O)C[C@@]3(C)[C@@H]2C1", "TGI [µM]": 22.9}
{"compound": "COc1ccc(OC)c(/C=C2\\SC(=S)NC2=O)c1", "TGI [µM]": 64.8}
{"compound": "Nc1nc2c(c3ncncc13)C(c1cccc(C(F)(F)F)c1)Cc1ncncc1-2 (stereo unspecified)", "TGI [µM]": 8.81}
{"compound": "COc1ccc(-c2nc3sc4c(c3c(=O)[nH]2)CCCCCC4)cc1", "TGI [µM]": 10.4}

Exam item: Identify TGI associated with the compound CC#CC#C/C=C1/O[C@]2(CCC(OC(C)=O)CO2)[C@@H]2O[C@H]12 (stereo partly specified)
Marked response: 47.5

* * *

# Tested on: UACC-257 melanoma
# assayDetails: NCI tumour cell line growth inhibition, 48 h
Measured TGI by item
Output spec: scalar in µM, unitless text.

{"compoundStructure": "O=C1c2cccnc2C(=O)c2nc3cc(N4CCN(C5CC5)CC4)ccc3nc21", "TGI, µM": 1.98}

Exam item: Identify TGI associated with the compound `Cc1c(C(=O)C/C(=N\O)C(=O)Nc2cc(Cl)c(Cl)cc2Cl)[n+](=O)c2ccccc2n1[O-]`
Marked response: 20.2

Exam item: Identify TGI associated with the compound `O=C(CCCCCCC(=O)Nc1ccc(N(CCCl)CCCl)cc1)NO`
Marked response: 14.1

* * *

Measured TGI by item
# Tested on: NCI-H460 lung
# assayDetails: NCI tumour cell line growth inhibition, 48 h
Output spec: scalar in µM, unitless text.

{"compoundStructure": "Cc1ccc(C(=O)c2nnc(C(=O)c3ccc(C)cc3)nn2)cc1", "measuredOn": "NCI-H460 lung", "measuredEndpoint": "TGI", "u": "µM", "resultNumber": 33.8}

Exam item: Identify TGI associated with the compound `CN1CC[C@@]2(c3cccc(O)c3)CC(=O)/C(=C/c3ccccc3)[C@H]1C2`
Marked response: 18.7

* * *

# Tested on: HCT-116 colon
# assayDetails: NCI tumour cell line growth inhibition, 48 h
Measured TGI by item

Solved entries:
{"compoundStructure": "C=CCOc1ccc(/C(N=Nc2ccc(Cl)cc2)=N/NC(=O)c2ccccc2)cc1OC", "measuredEndpoint": "TGI", "result": "> 100 µM"}
{"compoundStructure": "NC(=O)NNc1nc2ccccc2c(=O)n1NC(=O)C(=O)Nc1ccc(Cl)cc1Cl", "measuredEndpoint": "TGI", "result": "> 100 µM"}

Exam item: Fill in TGI for `Cn1cccc1-c1cc(-c2cccs2)nc(N)c1C#N` tested with HCT-116 colon.
Marked response: > 100 µM

* * *

Measured TGI by item
# System: TK-10 renal
# assayDetails: NCI tumour cell line growth inhibition, 48 h

Solved entries:
{"compound": "COc1ccc2c(c1)/C(=C\\c1c(C)nc3sccn13)C(=O)N2", "TGI": "> 63.5 µM"}
{"compound": "Cc1ccc(N=Nc2c(O)c(C(=O)O)cc3ccccc23)cc1C", "TGI": "> 100 µM"}

Exam item: Identify TGI associated with the compound `O=S(=O)(O)c1ccc2cccc(N=Nc3c(O)ccc4ccccc34)c2c1`
Marked response: > 100 µM

Exam item: Identify TGI associated with the compound `NC(=O)NNc1nc2ccccc2c(=O)n1NC(=O)C(=O)Nc1ccc(Cl)cc1Cl`
Marked response: > 100 µM

Exam item: Identify TGI associated with the compound CC1=C(Oc2ccccc2)C(CCC(=O)O)c2c(O)cc(Cl)c(O)c21 (stereo not given)
Marked response: > 100 µM
